// data source = PubChem BioAssay (EPA / NIEHS)

read-out: Apoptosis regulator Bcl-2 (Homo sapiens) (UniProt P10415); test: LTEA_HepaRG_BCL2: Life Technologies and Expression Analysis (LTEA) Assay for Bcl-2 gene using HepaRG (AID 2283475); details: mRNA level, 48 h; actives raise or lower the signal;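 note: BCL2 transcript by TaqMan qRT-PCR normalised to ACTB GAPDH and POLR2A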
Sequence (P10415 whole entry, looked up): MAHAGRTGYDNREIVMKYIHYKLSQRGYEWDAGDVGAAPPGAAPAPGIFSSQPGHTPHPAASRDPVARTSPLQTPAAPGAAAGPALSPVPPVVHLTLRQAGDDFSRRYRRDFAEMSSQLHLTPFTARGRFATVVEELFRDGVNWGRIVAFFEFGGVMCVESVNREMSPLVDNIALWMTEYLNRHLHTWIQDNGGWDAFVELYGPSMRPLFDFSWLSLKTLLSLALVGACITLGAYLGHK
Activity calls are given as the source filed them. Rule for the calls: active = hit-call score of the fitted dose curve at least 0.9, where 1 is the maximum; inactive = score below 0.9.
Outcomes you can answer with include only these: active, inactive

# example entries with known answers
# COMPOUND, LABEL CLASS
data = [
    ("OC(Cn1cncn1)(Cn1cncn1)c1ccc(F)cc1F", "inactive"),
    ("OCCNCCO", "inactive"),
    ("O=c1[nH]cnc2c1ncn2[C@H]1CC[C@@H](CO)O1", "inactive"),
    ("NC(=O)NN=Cc1ccc([N+](=O)[O-])o1", "inactive"),
    ("CCCCC(CC)C(=O)OCCOCCOCCOC(=O)C(CC)CCCC (stereo not drawn)", "inactive"),
]

Please state the recorded outcome for this compound: O=C(NO)C1(NS(=O)(=O)c2ccc(Oc3ccc(F)cc3)cc2)CCOCC1
inactive

Please state the recorded outcome for this compound: OC(CCl)CCl
inactive

Please state the recorded outcome for this compound: CCCCCCCCCCCCCCO
inactive

Please state the recorded outcome for this compound: c1ccc2ncccc2c1
inactive

Please state the recorded outcome for this compound: OC[C@H]1O[C@@](CO)(O[C@H]2O[C@H](CO)[C@@H](O)[C@H](O)[C@H]2O)[C@@H](O)[C@@H]1O
inactive

###

Read-out: Pyruvate Dehydrogenase Kinase 4 (PDK4), PDK4 (gene 5166)
Assay: LTEA_HepaRG_PDK4: Life Technologies and Expression Analysis (LTEA) Assay for Pyruvate Dehydrogenase Kinase 4 (PDK4) using HepaRG (AID 2283525)
Conditions: mRNA level, 48 h; actives raise or lower the signal
Method: LTEA_HepaRG is a cell based, multiplexed-readout assay that uses HepaRG, a human liver cell line, with measurements taken at 48 hours after chemical dosing on a 96-well plate.LTEA_HepaRG_PDK4 is one of 102 assay component(s) measured in the LTEA HepaRG cell culture assay. It is a marker of Diseases associated with PDK4 including Platelet Glycoprotein Iv Deficiency and Diabetes Mellitus, Noninsulin-Dependent.Data from the assay component LTEA_HepaRG_PDK4 was analyzed into 1 endpoint. […]
Activity calls are given as the source filed them. How the source made its calls: active means hit-call score of the fitted dose curve at least 0.9, where 1 is the maximum; inactive means score below 0.9.
Outcomes you can answer with include only these: active, inactive

# COMPOUND, LABEL CLASS
data = [
    ("Cc1ncc([C@@H](CCCCCCc2ccc3c(n2)NCCC3)CC(=O)O)cn1", "active"),
    ("C=CCc1cc(S(=O)(=O)c2ccc(O)c(CC=C)c2)ccc1O", "active"),
    ("COc1cc2c(c(OC)c1OC)-c1ccc(OC)c(=O)cc1[C@@H](NC(C)=O)CC2", "active"),
    ("OCC(CO)(CO)CO", "inactive"),
    ("C[C@@H](Oc1ccc(CNC(=O)c2cccnc2Oc2ccc3c(c2)OCO3)c(F)c1)C(=O)O", "active"),
]

Please state the recorded outcome for this compound: CCCCCCCC1CCC(=O)O1 (configuration not stated)
inactive

Please state the recorded outcome for this compound: CC(=O)c1ccccc1
inactive

Please state the recorded outcome for this compound: CCN(CC)C(=S)SSC(=S)N(CC)CC
inactive

Please state the recorded outcome for this compound: CCCCCCCCCC
inactive

Please state the recorded outcome for this compound: CC1(C)C(=O)N(Cl)C(=O)N1Cl
inactive

Please state the recorded outcome for this compound: OC[C@H]1O[C@@](CO)(O[C@H]2O[C@H](CO)[C@@H](O)[C@H](O)[C@H]2O)[C@@H](O)[C@@H]1O
inactive

Please state the recorded outcome for this compound: c1ccc(C(O[C@@H]2CCCN(CCc3ccc4c(c3)OCO4)C2)c2ccccc2)cc1
active

###

read-out: DNA damage-inducible transcript 3 (DDIT3), DDIT3 (gene 1649); assay: LTEA_HepaRG_DDIT3: Life Technologies and Expression Analysis (LTEA) Assay for DNA damage-inducible transcript 3 (DDIT3) using HepaRG (AID 2283488); details: mRNA level, 48 h; actives raise or lower the signal
The source made the active and inactive calls. How the source made its calls: active means hit-call score of the fitted dose curve at least 0.9, where 1 is the maximum; inactive means score below 0.9.
Outcomes you can answer with include only these: active, inactive

# COMPOUND, LABEL CLASS
records = [
    ("CCCCOC(=O)c1ccccc1", "inactive"),
    ("OC[C@H]1O[C@@](CO)(O[C@H]2O[C@H](CO)[C@@H](O)[C@H](O)[C@H]2O)[C@@H](O)[C@@H]1O", "inactive"),
    ("OCCOCCOCCO", "inactive"),
    ("CCCCCCCCCCCCCCCCOS(=O)(=O)O", "inactive"),
    ("CCCCCCCCCCCCCCO", "inactive"),
    ("Cc1ncc([C@@H](CCCCCCc2ccc3c(n2)NCCC3)CC(=O)O)cn1", "inactive"),
    ("c1ccc2c(c1)-c1cccc3c1c-2cc1ccccc13", "active"),
    ("C=CN1CCCC1=O", "inactive"),
]

Please state the recorded outcome for this compound: O=c1[nH]cnc2c1ncn2[C@H]1CC[C@@H](CO)O1
inactive

###

experiment: CCTE_Shafer_MEA_dev_bursting_electrodes_number: CCTE's Neural Network Formation Assay for Number of Bursting Electrodes, Shafer Lab (AID 2284043)
Results filed as inconclusive are left out. The source made the active and inactive calls. How the source made its calls: active means hit-call score of the fitted dose curve at least 0.9, where 1 is the maximum; inconclusive means response in the unintended direction; inactive means score below 0.9.
Outcomes you can answer with include only these: true (1) (active), false (0) (inactive)

# CHEMICAL STRING, LABEL CLASS
rows = [
    ("FC(F)(F)COC(OCC(F)(F)F)OCC(F)(F)F", "false (0)"),
    ("Cn1cc[nH]c1=S", "false (0)"),
    ("O=C(Cl)C(F)(F)C(F)(F)C(F)(F)C(=O)Cl", "false (0)"),
    ("COc1cc2c(c(OC)c1OC)-c1ccc(OC)c(=O)cc1[C@@H](NC(C)=O)CC2", "true (1)"),
]

Please state the recorded outcome for this compound: c1ccc2c(c1)-c1cccc3c1c-2cc1ccccc13
true (1)

Please state the recorded outcome for this compound: FC(F)(F)C(F)(F)C(F)(F)C(F)(F)C(F)(F)C(F)(F)I
false (0)

###

read-out: ABC Transporter (ABCC3), ABCC3 (gene 8714); test: LTEA_HepaRG_ABCC3: Life Technologies and Expression Analysis (LTEA) Assay for ABC Transporter (ABCC3) using HepaRG (AID 2283462); settings: mRNA level, 48 h; actives raise or lower the signal
The source made the active and inactive calls. How the source made its calls: active means hit-call score of the fitted dose curve at least 0.9, where 1 is the maximum; inactive means score below 0.9.
Outcomes you can answer with include only these: active, inactive

# example entries with known answers
# MOLECULE, LABEL CLASS
measured = [
    ("C=CCc1cc(S(=O)(=O)c2ccc(O)c(CC=C)c2)ccc1O", "inactive"),
    ("COc1cc2c(c(OC)c1OC)-c1ccc(OC)c(=O)cc1[C@@H](NC(C)=O)CC2", "active"),
    ("CC[C@H](C)C(=O)O[C@H]1C[C@H](O)C=C2C=C[C@H](C)[C@H](CC[C@@H](O)C[C@@H](O)CC(=O)O)[C@H]21", "inactive"),
    ("CCCCCCCCN(C)C", "inactive"),
]

Please state the recorded outcome for this molecule: OC[C@H]1O[C@@H]2O[C@H]3[C@H](O)[C@@H](O)[C@@H](O[C@H]4[C@H](O)[C@@H](O)[C@@H](O[C@H]5[C@H](O)[C@@H](O)[C@@H](O[C@H]6[C@H](O)[C@@H](O)[C@@H](O[C@H]7[C@H](O)[C@@H](O)[C@@H](O[C@H]1[C@H](O)[C@H]2O)O[C@@H]7CO)O[C@@H]6CO)O[C@@H]5CO)O[C@@H]4CO)O[C@@H]3CO
inactive

Please state the recorded outcome for this molecule: OCc1ccccc1
inactive

Please state the recorded outcome for this molecule: CCOc1ccc2[nH]cc(C(=O)NCc3ccccc3)c(=O)c2n1
inactive

Please state the recorded outcome for this molecule: CC(C)CC(C)O (stereo not drawn)
inactive

###

read-out: Tumor necrosis factor receptor 1 (TNFRSF1A), TNFRSF1A (gene 7132); experiment: LTEA_HepaRG_TNFRSF1A: Life Technologies and Expression Analysis (LTEA) Assay for Tumor necrosis factor receptor 1 (TNFRSF1A) using HepaRG (AID 2283535); conditions: mRNA level, 48 h; actives raise or lower the signal
Calls of active or inactive are those of the source. Rule for the calls: active = hit-call score of the fitted dose curve at least 0.9, where 1 is the maximum; inactive = score below 0.9.
Outcomes you can answer with include only these: y (active), n (inactive)

# COMPOUND, LABEL CLASS
measured = [
    ("CCCCCCCCCCCCCCCCOS(=O)(=O)O", "n"),
    ("CCCCCCCCCCCCCCO", "n"),
    ("CCCCCCCCN(C)C", "n"),
    ("C[C@@H](Oc1ccc(CNC(=O)c2cccnc2Oc2ccc3c(c2)OCO3)c(F)c1)C(=O)O", "n"),
    ("COS(C)(=O)=O", "n"),
    ("O=C(O)c1cccc(C[C@@H]2COc3ccc(OCc4nc5cc(F)ccc5s4)cc3[C@@H]2O)c1", "n"),
    ("CC[C@H](C)C(=O)O[C@H]1C[C@H](O)C=C2C=C[C@H](C)[C@H](CC[C@@H](O)C[C@@H](O)CC(=O)O)[C@H]21", "n"),
    ("CCc1ccc(O)c(C(C)(C)C)c1", "n"),
    ("CCc1cccc(CC)c1N", "n"),
    ("CC(C)CC(C)O (stereo not given)", "n"),
]

Please state the recorded outcome for this compound: Cc1nc(-c2ccccn2)ncc1C(=O)Nn1cc(C)c2cc(F)ccc21
n

Please state the recorded outcome for this compound: O=c1[nH]cnc2c1ncn2[C@H]1CC[C@@H](CO)O1
n

Please state the recorded outcome for this compound: OC[C@H]1O[C@@](CO)(O[C@H]2O[C@H](CO)[C@@H](O)[C@H](O)[C@H]2O)[C@@H](O)[C@@H]1O
n

Please state the recorded outcome for this compound: O=C(O)[C@H](O)[C@@H](O)C(=O)O
n

Please state the recorded outcome for this compound: O=S(=O)(O)c1ccc(N=Nc2c(O)ccc3cc(S(=O)(=O)O)ccc23)cc1
n

Please state the recorded outcome for this compound: COc1cc2c(c(OC)c1OC)-c1ccc(OC)c(=O)cc1[C@@H](NC(C)=O)CC2
n

Please state the recorded outcome for this compound: c1ccc2cc3ccccc3cc2c1
n
